Reference source for all entries: ChEMBL document CHEMBL1131430

Consider the following molecules; for each one, report its pIC50.
SYSTEM: Glucagon receptor (Homo sapiens)
Sequence (P47871 whole entry): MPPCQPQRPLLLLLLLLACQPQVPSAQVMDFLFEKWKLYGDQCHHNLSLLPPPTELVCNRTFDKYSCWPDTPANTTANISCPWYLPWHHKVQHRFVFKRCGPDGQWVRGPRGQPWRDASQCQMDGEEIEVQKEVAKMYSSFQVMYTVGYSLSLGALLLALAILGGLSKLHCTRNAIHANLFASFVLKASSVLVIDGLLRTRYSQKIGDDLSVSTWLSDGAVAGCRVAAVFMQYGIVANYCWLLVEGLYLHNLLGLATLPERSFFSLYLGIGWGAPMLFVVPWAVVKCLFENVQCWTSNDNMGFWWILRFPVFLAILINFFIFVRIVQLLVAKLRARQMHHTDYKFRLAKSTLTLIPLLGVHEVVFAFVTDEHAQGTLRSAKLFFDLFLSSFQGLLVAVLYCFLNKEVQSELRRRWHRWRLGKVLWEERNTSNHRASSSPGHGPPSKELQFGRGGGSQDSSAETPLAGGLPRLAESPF
EXPERIMENT_NOTES: Binding affinity towards cloned human glucagon receptor in BHK cells.
Format: cell-based
API: returns pIC50 as number; meaning -log10 of concentration in mol/L.

Query block: GET /values?readout=pIC50&item= "O=C(CSc1nc2ccccc2[nH]1)c1ccc(O)c(C(=O)O)c1"
Result block: 3.70

Query block: Looking for the measured pIC50 of "O=C(CSc1nc2cc(Cl)c(Cl)cc2[nH]1)c1ccc(O)c(O)c1" , can you help?
Result block: 4.70

Query block: For the molecule shown here, "O=C(O)c1cccc(COc2ccc3[nH]c(SCC(=O)c4ccc(O)c(O)c4)nc3c2)c1" , give the reported pIC50.
Result block: 4.02

Query block: Item "O=C(CSc1nc2ccccc2o1)c1ccc(O)c(O)c1" has what recorded pIC50?
Result block: 3.60
